Ref: patent EP4813463A2

- Test: Brain pharmacokinetic studies in dogs
- Format: in vivo, Beagle dogs
- Condition Label: dog, brain; Beagle dogs, iv, 2 mg/kg, solution; read-out: Brain AUC/Systemic AUC
- Procedure: Pharmacokinetic profiles of test articles were evaluated in Beagle dogs. Different kinds of formulations were designed to ensure test articles fully dissolved and wouldn't precipitate in 1:10 SGF or FaSSIF dilution. The animal was restrained manually at the designated time points, approximately 500 µL of blood sample was collected via cephalic vein into K2EDTA tubes. […]
Provide the recorded Kp for the entries that follow.
Give the value as a plain number.

Asked: Given the molecule COC(=O)c1cnc(NC(=O)C2CC2)cc1Nc1nn(C)c2ccc([C@H](OC)C(F)(F)F)c(OC)c12 [Example 45B] , what is its reported Kp?
Given back: 1.12

Asked: Given the molecule [2H]C([2H])([2H])O[C@@H](c1ccc2c(c(Nc3cc(NC(=O)C4CC4)ncc3C(=O)OC)nn2C)c1OC)C(F)(F)F [Example 50B] , what is its reported Kp?
Given back: 1.36

---

- Measurement Target: TYK2-JH2 domain (Homo sapiens)
- Construct: JAK1-JH2 domain or TYK2-JH2 domain enzyme in assay buffer
- Sequence (P29597 589-875 limits assumed): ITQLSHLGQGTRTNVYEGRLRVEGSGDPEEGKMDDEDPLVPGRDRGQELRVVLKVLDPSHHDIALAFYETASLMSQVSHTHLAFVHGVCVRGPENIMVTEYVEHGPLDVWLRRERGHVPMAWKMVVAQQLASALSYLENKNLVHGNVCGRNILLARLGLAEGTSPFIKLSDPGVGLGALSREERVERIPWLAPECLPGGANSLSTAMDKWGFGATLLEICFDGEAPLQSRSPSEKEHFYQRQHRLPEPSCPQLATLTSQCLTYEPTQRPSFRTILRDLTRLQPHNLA
- Test: Binding activity test for JH2 domain of TYK2 (Tb-antibody/tracer FRET)
- Condition Label: ratio of JAK1 JH2 to TYK2 JH2 binding IC50
Provide the recorded JAK1/TYK2 selectivity for the entries that follow.
Give the value as a plain number.

Asked: Given the compound `COc1c([C@H](OC)C(F)(F)F)ccc2c1c(Nc1cc(NC(=O)C3CC3)ncc1C(=O)O)nn2C` , what is its reported JAK1/TYK2 selectivity?
Given back: 2307.96

Asked: Given the compound [2H]C([2H])([2H])NC(=O)c1nnc(NC(=O)C2CC2)cc1Nc1nn(C)c2ccc([C@H](OC)C(F)(F)F)c(OC)c12 [Example 51B] , what is its reported JAK1/TYK2 selectivity?
Given back: 7.43

Asked: Given the compound [2H]C([2H])(C)C(=O)c1cnc(NC(=O)C2CC2)cc1Nc1nn(C)c2ccc(C(O)C(F)(F)F)c(OC)c12 (centres unmarked) , what is its reported JAK1/TYK2 selectivity?
Given back: 86.87

Asked: Given the compound `COc1c(-c2cnn(C)n2)ccnc1Nc1cc(NC(=O)C2CC2)ncc1C(C)(F)F` , what is its reported JAK1/TYK2 selectivity?
Given back: 8.50

Asked: Given the compound `[2H]C([2H])([2H])NC(=O)c1cnc(NC(=O)C2(F)CC2)cc1Nc1cnn2ccc([C@H](O)C(F)(F)F)c(OC)c12` , what is its reported JAK1/TYK2 selectivity?
Given back: 1011.9

Asked: Given the compound `[2H]C([2H])([2H])CC(=O)c1cnc(NC(=O)C2CC2)cc1Nc1nc2ccc(N3CC(OC)C3)cn2n1` , what is its reported JAK1/TYK2 selectivity?
Given back: 246

Asked: Given the compound [2H]C([2H])([2H])NC(=O)c1cnc(NC(=O)C2CC2)cc1Nc1cnn2ccc(C(C)C(F)(F)F)c(OC)c12 (single isomer, unassigned) [Example 9A] , what is its reported JAK1/TYK2 selectivity?
Given back: 91.9

Asked: Given the compound [2H]C([2H])([2H])NC(=O)c1cnc(NC(=O)C2CC2)cc1Nc1cnn2ccc(C(C)C(F)(F)F)c(OC)c12 (centres unmarked) [Example 9] , what is its reported JAK1/TYK2 selectivity?
Given back: 55.4

Asked: Given the compound `[2H]C([2H])([2H])NC(=O)c1cnc(NC(=O)C2CC2)nc1Nc1cnn2ccc(Cl)c(OC)c12` , what is its reported JAK1/TYK2 selectivity?
Given back: 93.5

Asked: Given the compound `[2H]C([2H])([2H])NC(=O)c1cnc(NC(=O)C2CC2)cc1Nc1cnn2ccc(COC)c(OC)c12` , what is its reported JAK1/TYK2 selectivity?
Given back: 64.0

Asked: Given the compound CCC(=O)c1cnc(NC(=O)C2CC2)cc1Nc1ccc2cn[nH]c2c1OC [Example 196, reference compound] , what is its reported JAK1/TYK2 selectivity?
Given back: 8.04

Asked: Given the compound `[2H]C([2H])([2H])NC(=O)c1cnc(NC(=O)C2CC2)cc1Nc1cnn2ccc(CC#N)c(OC)c12` , what is its reported JAK1/TYK2 selectivity?
Given back: 12.5

Asked: Given the compound [2H]C([2H])([2H])O[C@@H](c1ccc2c(c(Nc3cc(NC(=O)C4CC45CC5)ncc3C(=O)OC)nn2C)c1OC)C(F)(F)F (some centres unmarked) , what is its reported JAK1/TYK2 selectivity?
Given back: 370.63

---

- Measurement Target: JAK1-JH2 domain (Homo sapiens, UniProt P23458)
- Construct: JAK1-JH2 domain or TYK2-JH2 domain enzyme in assay buffer
- Sequence (P23458 583-855 limits assumed): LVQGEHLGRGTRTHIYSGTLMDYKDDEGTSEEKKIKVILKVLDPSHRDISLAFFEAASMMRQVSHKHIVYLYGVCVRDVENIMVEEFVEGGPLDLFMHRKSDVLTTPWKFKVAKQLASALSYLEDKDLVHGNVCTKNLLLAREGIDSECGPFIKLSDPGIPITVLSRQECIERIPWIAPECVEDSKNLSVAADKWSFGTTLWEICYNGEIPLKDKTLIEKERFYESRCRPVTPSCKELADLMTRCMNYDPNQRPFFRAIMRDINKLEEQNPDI
- Test: Binding activity test for JH2 domain of JAK1 (Tb-antibody/tracer FRET)
- Condition Label: JH2 domain enzyme; 60 min at 25°C, then 4°C overnight; read-out: JAK1 JH2 Binding IC50
Assay Endpoint: pIC50
Scale: negative log10 of molar concentration, which is what pIC50 denotes.

Asked: Given the compound [2H]C([2H])(C)C(=O)c1cnc(NC(=O)C2CC2)cc1Nc1nn(C)c2ccc(C(O)C(F)(F)F)c(OC)c12 (centres unmarked) , what is its reported pIC50?
Given back: 7.85

Asked: Given the compound `[2H]C([2H])([2H])NC(=O)c1cnc(NC(=O)[C@@H]2C[C@@H]2F)cc1Nc1cnn2ccc(COC)c(OC)c12` , what is its reported pIC50?
Given back: 7.89

Asked: Given the compound [2H]C([2H])([2H])NC(=O)c1cnc(NC(=O)C2CC2)cc1Nc1cnn2ccc(C(C)O)c(OC)c12 (centres unmarked) , what is its reported pIC50?
Given back: 7.87

Asked: Given the compound `COCOc1cnc(NC(=O)C2CC2)cc1Nc1cnn2ccc([C@H](OC)C(F)(F)F)c(OC)c12` , what is its reported pIC50?
Given back: 6.72

Asked: Given the compound [2H]C([2H])([2H])n1nc(Nc2cc(NC(=O)C3CC3)ncc2C(=O)OC)c2c(OC)c([C@H](OC)C(F)(F)F)ccc21 [Example 52A] , what is its reported pIC50?
Given back: 7.39

Asked: Given the compound CCn1nc(Nc2cc(NC(=O)C3CC3)ncc2C(=O)OC)c2c(OC)c(C(O)C(F)(F)F)ccc21 (single isomer, unassigned) [Example 70B] , what is its reported pIC50?
Given back: 7.33

Asked: Given the compound `[2H]C([2H])([2H])NC(=O)c1cnc(NC(=O)C2CC2)cc1Nc1cnn2ccc([C@H](O)C(F)(F)F)c(OC)c12` , what is its reported pIC50?
Given back: 7.98

Asked: Given the compound `[2H]C([2H])([2H])NC(=O)c1cnc(NC(=O)C2CC2)cc1Nc1cnn2ccc(CC(F)(F)F)c(OC)c12` , what is its reported pIC50?
Given back: 8.47

Asked: Given the compound [2H]C([2H])([2H])NC(=O)c1cnc(NC(=O)C2CC2)cc1Nc1cnn2ccc(C(O)C(F)(F)F)c(OC)c12 (centres unmarked) , what is its reported pIC50?
Given back: 7.96

Asked: Given the compound `[2H]C([2H])([2H])NC(=O)c1nnc(NC(=O)C2CC2)cc1Nc1cnn2ccc([C@H](O)C(F)(F)F)c(OC)c12` , what is its reported pIC50?
Given back: 7.96

Asked: Given the compound `[2H]C([2H])([2H])NC(=O)c1cnc(Nc2ccc(N3CCOCC3)cn2)cc1Nc1nn(C)c2ccc([C@H](OC)C(F)(F)F)c(OC)c12` , what is its reported pIC50?
Given back: 8.62

Asked: Given the compound `COC(=O)c1cnc2cc1Nc1cc(cc(-c3ccn(C)n3)c1OC)CCOCc1cccc(n1)N2` , what is its reported pIC50?
Given back: 6.63

---

- Test: Microsomal metabolic stability assay
- Assay type: in vitro ADME
- Condition Label: human, liver microsomes; 0.5 mg/mL microsomal protein, 1 µM test article, 2 mM NADPH; read-out: Human LM Clint
Assay Endpoint: microsomal CLint at 1 µM (µL/min/mg)
Enter your answer as a number in µL/min/mg; do not include the unit.

Asked: Given the compound COC(=O)c1cnc(NC(=O)[C@@H]2C[C@@H]2F)cc1Nc1nn(C)c2ccc(C(O)C(F)(F)F)c(OC)c12 (single isomer, unassigned) [Example 122A] , what is its reported microsomal CLint at 1 µM?
Given back: 15.5

---

- Test: Caco-2 cell permeability
- Type: in vitro ADME
- Condition Label: human; Caco-2, 10.0 µM, no p-gp inhibitor, 90 mins, B to A
Assay Endpoint: Papp B→A at 1.5 h, 10 µM (×10⁻⁶ cm/s)
Enter your answer as a number in ×10⁻⁶ cm/s; do not include the unit.

Asked: Given the molecule COC(=O)c1cnc(NC(=O)[C@@H]2C[C@@H]2F)cc1Nc1nn(C)c2ccc(C(O)C(F)(F)F)c(OC)c12 (single isomer, unassigned) [Example 122A] , what is its reported Papp B→A at 1.5 h, 10 µM?
Given back: 45.3
